test target: Low molecular weight phosphotyrosine protein phosphatase (Homo sapiens) (UniProt P24666)
Sequence (P24666 whole entry, looked up): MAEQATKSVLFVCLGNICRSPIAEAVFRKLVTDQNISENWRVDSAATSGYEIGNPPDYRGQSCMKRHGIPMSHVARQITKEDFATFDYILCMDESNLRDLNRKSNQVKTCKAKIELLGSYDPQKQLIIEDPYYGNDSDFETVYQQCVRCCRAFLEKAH
experiment summary: Competitive inhibition of human GST-tagged LMW-PTP-B expressed in Escherichia coli JM 109 cells using p-nitrophenyl phosphate as substrate after 15 mins by microplate reader analysis
measurement name: Kis (µM)
Expressed in µM, but write only the number.

O=C(O)Cc1ccc(/N=N/c2c(O)c(C(=O)O)cc3ccccc23)cc1    33.5
O=C(O)/C=C/C(=O)N1Cc2cc3ccccc3nc2C1    493
Cc1cc(C)c2c(SC(C)C)nc(N)nc2n1    925

Query Kis for Cc1ccc([N+](=O)[O-])cc1NC(=O)Nc1ccc(S(N)(=O)=O)cc1 2230

Entry O=C(O)c1ccc2c(c1Nc1ccccc1)C(=O)c1ccccc1C2=O needs its Kis filled in; supply it. 161

Give a short answer stating reported Kis for COc1ccc(C(=O)O)nc1C . 2780

Provide Kis value for the following compound: O=c1c(O)cccc2cc(O)c(O)c(O)c12 10.4

For the compound CC[C@@]1(O)C(=O)OCc2c1cc1n(c2=O)Cc2cc3c(NC(=O)CN)cccc3nc2-1 , give its reported Kis. 538
